Test System: T1, human ICOS, full-length, expressed on transfected Expi293 cells (human, UniProt Q9Y6W8 21-199)
T1 construct: whole, on cells
T1 sequence (looked up): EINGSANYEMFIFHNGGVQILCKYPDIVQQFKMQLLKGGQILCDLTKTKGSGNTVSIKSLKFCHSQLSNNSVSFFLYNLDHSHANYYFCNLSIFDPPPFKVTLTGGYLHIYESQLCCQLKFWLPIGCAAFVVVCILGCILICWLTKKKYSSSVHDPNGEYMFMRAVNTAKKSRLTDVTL
Protocol Summary: flow cytometry, 100 nM, Expi293 cells with human ICOS
Measurement Label: MFI ratio to WT (ΔWT) (fold)
Provide only the numeric value, understood in fold.

// sample variant ICOSL IgV-Fc fusion N52K/N57Y/Q100R (Fc fusion) DTQEKEVRAMVGSDVELSCACPEGSRFDLNDVYVYWQTSESKTVVTYHIPQKSSLEYVDSRYRNRALMSPAGMLRGDFSLRLFNVTPQDEQKFHCLVLSRSLGFQEVLSVEVTLHVAANFSVGSGGGGSEPKSSDKTHTCPPCPAPEAEGAPSVFLFPPKPKDTLMISRTPEVTCVVVDVSHEDPEVKFNWYVDGVEVHNAKTKPREEQYNSTYRVVSVLTVLHQDWLNGKEYKCKVSNKALPAPIEKTISKAKGQPREPQVYTLPPSREEMTKNQVSLTCLVKGFYPSDIAVEWESNGQPENNYKTTPPVLDSDGSFFLYSKLTVDKSRWQQGNVFSCSVMHEALHNHYTQKSLSLSPG , its MFI ratio to WT (ΔWT) was 0.94

Measured MFI ratio to WT (ΔWT), variant ICOSL IgV-Fc fusion N52A/N57Y/Q100A (Fc fusion) DTQEKEVRAMVGSDVELSCACPEGSRFDLNDVYVYWQTSESKTVVTYHIPQASSLEYVDSRYRNRALMSPAGMLRGDFSLRLFNVTPQDEQKFHCLVLSASLGFQEVLSVEVTLHVAANFSVGSGGGGSEPKSSDKTHTCPPCPAPEAEGAPSVFLFPPKPKDTLMISRTPEVTCVVVDVSHEDPEVKFNWYVDGVEVHNAKTKPREEQYNSTYRVVSVLTVLHQDWLNGKEYKCKVSNKALPAPIEKTISKAKGQPREPQVYTLPPSREEMTKNQVSLTCLVKGFYPSDIAVEWESNGQPENNYKTTPPVLDSDGSFFLYSKLTVDKSRWQQGNVFSCSVMHEALHNHYTQKSLSLSPG : 1.23
